The measured values listed here are drawn from patent US20190358181A1.

# Protocol Summary: Suramin plasma pharmacokinetics by LC-MS/MS, two compartment population PK model, pediatric patients
# Format: in vivo, human
# Condition Summary: human, plasma, iv, 680 mg, ID 001, 680 mg (591 mg/m^2) IV; read-out: Plasma Half-Life (converted)
Measurement Kind: half-life (days)
Give the value, in units of days, as a plain number.

Provide half-life value for the following compound: `Cc1ccc(C(=O)Nc2ccc(S(=O)(=O)O)c3cc(S(=O)(=O)O)cc(S(=O)(=O)O)c23)cc1NC(=O)c1cccc(NC(=O)Nc2cccc(C(=O)Nc3cc(C(=O)Nc4ccc(S(=O)(=O)O)c5cc(S(=O)(=O)O)cc(S(=O)(=O)O)c45)ccc3C)c2)c1`
12.6

###

# Protocol Summary: Suramin plasma pharmacokinetics by LC-MS/MS, two compartment population PK model, pediatric patients
# Format: in vivo, human
# Condition Summary: human, plasma; 20 mg/kg IV; read-out: clearance (converted)
Measurement Kind: clearance (mL/h/kg)
Give the value, in units of mL/h/kg, as a plain number.

Provide clearance value for the following compound: `Cc1ccc(C(=O)Nc2ccc(S(=O)(=O)O)c3cc(S(=O)(=O)O)cc(S(=O)(=O)O)c23)cc1NC(=O)c1cccc(NC(=O)Nc2cccc(C(=O)Nc3cc(C(=O)Nc4ccc(S(=O)(=O)O)c5cc(S(=O)(=O)O)cc(S(=O)(=O)O)c45)ccc3C)c2)c1`
1.95

###

# Protocol Summary: Suramin plasma pharmacokinetics by LC-MS/MS, two compartment population PK model, pediatric patients
# Assay type: in vivo, human
# Condition Summary: human, plasma, iv, 1000 mg, ID 014, 1000 mg (613 mg/m^2) IV; read-out: Plasma Half-Life (converted)
# Description: For the test dose, 50 mg of suramin hexasodium (Bayer Pharmaceuticals, Inc.) in 5 mL of saline (experimental arm, 5 patients), or 5 mL of saline only (control arm, 5 patients) were given by slow intravenous (IV) push over 3 minutes, followed by a 10 mL flush of saline. […] Suramin pharmacokinetics was assessed by serum isolation at the 4 time points immediately before and after the infusion. […]
Measurement Kind: half-life (days)
Give the value, in units of days, as a plain number.

Provide half-life value for the following molecule: `Cc1ccc(C(=O)Nc2ccc(S(=O)(=O)O)c3cc(S(=O)(=O)O)cc(S(=O)(=O)O)c23)cc1NC(=O)c1cccc(NC(=O)Nc2cccc(C(=O)Nc3cc(C(=O)Nc4ccc(S(=O)(=O)O)c5cc(S(=O)(=O)O)cc(S(=O)(=O)O)c45)ccc3C)c2)c1`
14.9

###

# Protocol Summary: Suramin plasma pharmacokinetics by LC-MS/MS, two compartment population PK model, pediatric patients
# Format: in vivo, human
# Condition Summary: human, plasma, iv, 460 mg, ID 012, 460 mg (529 mg/m^2) IV; read-out: 1-Hour Plasma Conc
# Description: For the test dose, 50 mg of suramin hexasodium (Bayer Pharmaceuticals, Inc.) in 5 mL of saline (experimental arm, 5 patients), or 5 mL of saline only (control arm, 5 patients) were given by slow intravenous (IV) push over 3 minutes, followed by a 10 mL flush of saline. […] Suramin pharmacokinetics was assessed by serum isolation at the 4 time points immediately before and after the infusion. […]
Measurement Kind: concentration at 1 h (µM)
Give the value, in units of µM, as a plain number.

Provide concentration at 1 h value for the following compound: Cc1ccc(C(=O)Nc2ccc(S(=O)(=O)O)c3cc(S(=O)(=O)O)cc(S(=O)(=O)O)c23)cc1NC(=O)c1cccc(NC(=O)Nc2cccc(C(=O)Nc3cc(C(=O)Nc4ccc(S(=O)(=O)O)c5cc(S(=O)(=O)O)cc(S(=O)(=O)O)c45)ccc3C)c2)c1 [Suramin, suramin]
119
